Experiment: Partial competitive inhibition of VanX
pKi: −log10 of the molar value.

smiles.repr: C[C@H](N)P(=O)(O)N[C@H](C)C(=O)O
pKi: 4.44
